meta.source: ChEMBL document CHEMBL1136548

Reported IC50 by item:
molecular target: C-C chemokine receptor type 5 (Homo sapiens); assay: Displacement inhibition of 125-I labeled MIP-alpha from CCR5 receptor expressed on CHO cell membranes
Sequence (P51681 whole entry): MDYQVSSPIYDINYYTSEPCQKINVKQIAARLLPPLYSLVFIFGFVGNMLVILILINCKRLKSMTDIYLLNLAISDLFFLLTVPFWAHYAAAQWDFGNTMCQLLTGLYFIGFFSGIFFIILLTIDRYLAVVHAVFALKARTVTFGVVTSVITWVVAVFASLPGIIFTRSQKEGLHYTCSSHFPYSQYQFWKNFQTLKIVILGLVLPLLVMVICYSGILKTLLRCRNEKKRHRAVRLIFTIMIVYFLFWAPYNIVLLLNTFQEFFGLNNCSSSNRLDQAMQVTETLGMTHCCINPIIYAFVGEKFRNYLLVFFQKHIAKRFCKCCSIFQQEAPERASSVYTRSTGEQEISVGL
Form entry: value (nM) — number only.

Solved entries (count: 3):
In [3]: df
Out[3]:
                            compound_smiles                               target_desc  experimental_endpoint  reported_result
0  C=CCN(c1ncccn1)C1CCN(C[C@H]2CN(C(=O)C3CCCCC3)C[C@@H]2c2ccccc2)CC1  C-C chemokine receptor type 5 (Homo sapiens)                   IC50               12
1  CCCN(c1ncccn1)C1CCN(C[C@H]2CN([C@@H](C(=O)O)C3CCCCC3)C[C@@H]2c2ccccc2)CC1  C-C chemokine receptor type 5 (Homo sapiens)                   IC50              6.6
2  CCCN(c1ccccn1)C1CCN(C[C@H]2CN(C(=O)N3CCCC3)C[C@@H]2c2ccccc2)CC1  C-C chemokine receptor type 5 (Homo sapiens)                   IC50                9

Shift focus to the following entry.
// sample "CCCN(c1ncc(F)cn1)C1CCN(C[C@H]2CN([C@H](CC3CCC3)C(=O)O)C[C@@H]2c2cccc(F)c2)CC1" , its IC50 was 0.4

---

test: Half life was evaluated in rat; assay type: ADME, organism-based; conditions: in vivo
Use 0.9 h as the dividing line for half-life, with the line itself on the class 1 side and lower values as class 0.

                            compound_smiles      cat
0  CCN(c1ncccn1)C1CCN(C[C@H]2CN([C@H](CC3CCC3)C(=O)O)C[C@@H]2c2cccc(F)c2)CC1  class 1
1  CCCN(c1nccc(C(F)(F)F)n1)C1CCN(C[C@H]2CN([C@H](CC3CCC3)C(=O)O)C[C@@H]2c2cccc(F)c2)CC1  class 1
2  CCCN(c1ncccn1)C1CCN(C[C@H]2CN([C@H](CC3CCC3)C(=O)O)C[C@@H]2c2cccc(F)c2)CC1  class 1
3  O=C(O)[C@@H](CC1CCC1)N1C[C@H](CN2CCC(N(CC3CC3)c3ncccn3)CC2)[C@@H](c2cccc(F)c2)C1  class 0
4  CCCN(c1cncnc1)C1CCN(C[C@H]2CN([C@H](CC3CCC3)C(=O)O)C[C@@H]2c2cccc(F)c2)CC1  class 0

-- ask Dear colleague, could you confirm whether "CCCN(c1ncc(C(F)(F)F)cn1)C1CCN(C[C@H]2CN([C@H](CC3CCC3)C(=O)O)C[C@@H]2c2cccc(F)c2)CC1" has half-life at or above 0.9 h?
-- reply class 1

---

assay: Maximum plasma concentration was evaluated in rat; format: ADME, organism-based
experimental.endpoint: Cmax (nM)
Form entry: value (nM) — number only.

In [3]: df
Out[3]:
                            compound_smiles  experimental_endpoint  reported_result
0  CCCN(c1ncccn1)C1CCN(C[C@H]2CN([C@@H](C(=O)O)C3CCCCC3)C[C@@H]2c2cccc(F)c2)CC1                   Cmax              140
1  CCN(c1ncccn1)C1CCN(C[C@H]2CN([C@H](CC3CCC3)C(=O)O)C[C@@H]2c2cccc(F)c2)CC1                   Cmax              210
2  CCCN(c1cncnc1)C1CCN(C[C@H]2CN([C@H](CC3CCC3)C(=O)O)C[C@@H]2c2cccc(F)c2)CC1                   Cmax               28
3  CCCN(c1ncccn1)C1CCN(C[C@H]2CN([C@@H](C(=O)O)C3CCCCC3)C[C@@H]2c2ccccc2)CC1                   Cmax               49

Shift focus to the following entry.
// sample "CCCN(c1nccc(C(F)(F)F)n1)C1CCN(C[C@H]2CN([C@H](CC3CCC3)C(=O)O)C[C@@H]2c2cccc(F)c2)CC1" , its Cmax was 177
